B1: RAB40B (parent)
chain: YSLTTSSTHKRSSLRKVKLVRPPQ

variants of: B1; assay: protein stability index of a GFP-peptide fusion (GPS, HEK-293T) (PSI 1-6); higher = more stable; conditions: c terminus: a fixed tail appended;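 also: lentivirally expressed fusions sorted by FACS into six bins by GFP to DsRed ratio, PSI derived from sequencing read proportions per bin multiplied by bin number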
experimentalReadout: protein stability index
Response field accepts a number only; no unit should be typed.

Query: Which protein stability index reading was recorded for the variant V20P ?
Result: 3.56

Query: Which protein stability index reading was recorded for the variant Y1S ?
Result: 4.16

Query: Which protein stability index reading was recorded for the variant T8R ?
Result: 2.57

Query: Which protein stability index reading was recorded for the variant S7T ?
Result: 2.81

Query: Which protein stability index reading was recorded for the variant S7M ?
Result: 2.42

Query: Which protein stability index reading was recorded for the variant Y1P ?
Result: 3.97
